The reported numbers originate from patent US9085520B2.

# Tested on: 3T3-L1 adipocytes
# ASSAY_DETAILS: glucose consumption (remaining glucose) in culture medium of 3T3-L1 adipocytes
# Type: cell-based
# ASSAY_SETUP: 30 μg/ml; culture medium of 3T3-L1 adipocytes after 24 hours; means ± SD, N = 3; control 310 ± 4.0
METRIC_NAME: remaining glucose concentration in culture medium after 24 hours (mg/dL)
Answer format: numeric, mg/dL implied, no suffix.

| COMPOUND | VALUE_REPORTED |
| --- | --- |
| COc1cccc(/C=C/C(=O)c2ccccc2O)c1 [Compound 4] | 264 |

Ask | Kindly state the measured remaining glucose concentration in culture medium after 24 hours obtained for O=C(/C=C/c1ccc(OCc2ccccc2)cc1)c1ccccc1 [Compound 31] with 3T3-L1 adipocytes.
Reply | 274

Ask | What reported remaining glucose concentration in culture medium after 24 hours corresponds to O=C(/C=C/c1ccccc1)c1cccc(I)c1 [Compound 55] on 3T3-L1 adipocytes?
Reply | 294

Ask | Form field: remaining glucose concentration in culture medium after 24 hours recorded for O=C(/C=C/c1ccccc1)c1cc(Br)ccc1O [Compound 19] with 3T3-L1 adipocytes (enter value)
Reply | 253

Ask | Find remaining glucose concentration in culture medium after 24 hours (3T3-L1 adipocytes) for the entry O=C(/C=C/c1ccc(OCc2ccccc2)cc1)c1ccccc1O [Compound 25]
Reply | 260

Ask | # query: remaining glucose concentration in culture medium after 24 hours | item COc1cccc(/C=C/C(=O)c2ccc(Cl)cc2)c1 [Compound 15] | system: 3T3-L1 adipocytes
Reply | 272

Ask | Form: Entry = O=C(/C=C/c1cccc(OCc2ccccc2)c1)c1ccc(O)cc1O [Compound 34] | System = 3T3-L1 adipocytes | remaining glucose concentration in culture medium after 24 hours = ____
Reply | 283

###

# System: 3T3-L1 adipocytes
# ASSAY_DETAILS: glucose consumption (remaining glucose) in culture medium of 3T3-L1 adipocytes
# Format: cell-based
# ASSAY_SETUP: 30 μg/ml; culture medium of 3T3-L1 adipocytes after 24 hours; means ± SD, N = 3; control 310 ± 4.0
METRIC_NAME: remaining glucose concentration in culture medium after 24 hours (mg/dL)
Unit mg/dL implied. Number only.

The cases that follow already have their remaining glucose concentration in culture medium after 24 hours on record.
| COMPOUND | TESTED_ON | UOM | VALUE_REPORTED |
| --- | --- | --- | --- |
| O=C(/C=C/c1ccccc1)c1ccc(Cl)cc1 [Compound 46] | 3T3-L1 adipocytes | mg/dL | 295 |
| COc1cccc(/C=C/C(=O)c2ccccc2)c1 [Compound 8] | 3T3-L1 adipocytes | mg/dL | 261 |
| O=C(/C=C/c1ccc(O)cc1)c1ccccc1 [Compound 29] | 3T3-L1 adipocytes | mg/dL | 263 |
| COc1cccc(/C=C/C(=O)c2cccc(Cl)c2)c1 [Compound 44] | 3T3-L1 adipocytes | mg/dL | 287 |

// switching to the query compound
Ask | Would you mind telling me what remaining glucose concentration in culture medium after 24 hours value was observed for O=C(/C=C/c1ccc(OCc2ccccc2)cc1)c1ccccc1I [Compound 53] ?
Reply | 249

###

# Tested on: 3T3-L1 adipocytes
# ASSAY_DETAILS: glucose consumption (remaining glucose) in culture medium of 3T3-L1 adipocytes
# Format: cell-based
# ASSAY_SETUP: 30 μg/ml; culture medium of 3T3-L1 adipocytes after 24 hours; means ± SD, N = 3; control 310 ± 4.0
METRIC_NAME: remaining glucose concentration in culture medium after 24 hours (mg/dL)
Numbers only; they are read as mg/dL.

| COMPOUND | VALUE_REPORTED |
| --- | --- |
| O=C(/C=C/c1ccc(O)cc1)c1ccccc1O | 267 |
| COc1ccc(/C=C/C(=O)c2ccc(Cl)cc2)cc1 | 293 |
| O=C(/C=C/c1cccc(OCc2ccccc2)c1)c1cc(Br)ccc1O | 252 |
| COc1ccc(/C=C/C(=O)c2ccccc2F)cc1 | 259 |

Ask | Could you share what remaining glucose concentration in culture medium after 24 hours was measured for COc1cccc(/C=C/C(=O)c2ccc(F)cc2)c1 , tested on 3T3-L1 adipocytes?
Reply | 285

Ask | # query: remaining glucose concentration in culture medium after 24 hours | item COc1cccc(/C=C/C(=O)c2ccccc2F)c1 | system: 3T3-L1 adipocytes
Reply | 285

Ask | Request - read-out remaining glucose concentration in culture medium after 24 hours | tested on 3T3-L1 adipocytes | compound COc1cccc(/C=C/C(=O)c2cccc(F)c2)c1
Reply | 282

Ask | // map COc1ccc(/C=C/C(=O)c2cccc(Br)c2)cc1 to recorded remaining glucose concentration in culture medium after 24 hours (system: 3T3-L1 adipocytes)
Reply | 248

Ask | Fill in the recorded remaining glucose concentration in culture medium after 24 hours for this compound, with 3T3-L1 adipocytes as test system: COc1cccc(/C=C/C(=O)c2ccc(O)cc2O)c1
Reply | 274

Ask | Kindly state the measured remaining glucose concentration in culture medium after 24 hours obtained for COc1cccc(/C=C/C(=O)c2ccccc2Br)c1 with 3T3-L1 adipocytes.
Reply | 249

Ask | Which remaining glucose concentration in culture medium after 24 hours is reported with 3T3-L1 adipocytes for this entry: COc1ccc(/C=C/C(=O)c2cc(Br)ccc2O)cc1 ?
Reply | 254

Ask | Param readout= remaining glucose concentration in culture medium after 24 hours; system= 3T3-L1 adipocytes; entry= COc1cccc(/C=C/C(=O)c2cccc(I)c2)c1 ; returns value.
Reply | 246

Ask | Item: COc1ccc(/C=C/C(=O)c2ccc(O)cc2O)cc1 Test system: 3T3-L1 adipocytes Read-out: remaining glucose concentration in culture medium after 24 hours Value: ?
Reply | 248

###

# Tested on: 3T3-L1 adipocytes
# ASSAY_DETAILS: adipocyte death / toxicity to adipocytes
# ASSAY_SETUP: 30 μg/ml, matured 3T3-L1 adipocytes, 24 hours
METRIC_NAME: adipocyte death / toxicity to adipocytes

| MOLECULE | METRIC_NAME | VALUE_REPORTED |
| --- | --- | --- |
| COc1cccc(/C=C/C(=O)c2ccccc2O)c1 | adipocyte death / toxicity to adipocytes | non-toxic |
| O=C(/C=C/c1ccccc1)c1ccccc1 [Compound 9, (E)-chalcone] | adipocyte death / toxicity to adipocytes | non-toxic |
| COc1ccc(/C=C/C(=O)c2ccccc2O)cc1 | adipocyte death / toxicity to adipocytes | non-toxic |

###

# Test system: 3T3-L1 adipocytes
# ASSAY_DETAILS: glucose consumption (remaining glucose) in culture medium of 3T3-L1 adipocytes
# Format: cell-based
# ASSAY_SETUP: 30 μg/ml; culture medium of 3T3-L1 adipocytes after 24 hours; means ± SD, N = 3; control 310 ± 4.0
METRIC_NAME: remaining glucose concentration in culture medium after 24 hours (mg/dL)
Your answer should be a plain number; it is taken to be in mg/dL.

Ask | For the compound shown here, O=C(/C=C/c1cccc(OCc2ccccc2)c1)c1ccccc1 [Compound 30] , give the reported remaining glucose concentration in culture medium after 24 hours.
Reply | 285

Ask | Recorded remaining glucose concentration in culture medium after 24 hours for O=C(/C=C/c1ccccc1)c1ccccc1Br [Compound 48] , please?
Reply | 249

Ask | Please give the measured remaining glucose concentration in culture medium after 24 hours for this compound: O=C(/C=C/c1ccccc1)c1ccccc1 [Compound 9, (E)-chalcone]
Reply | 253

Ask | Reported remaining glucose concentration in culture medium after 24 hours for O=C(/C=C/c1ccccc1)c1ccc(O)cc1O [Compound 2] : what is it?
Reply | 273

Ask | Endpoint output: remaining glucose concentration in culture medium after 24 hours of COc1ccc(/C=C/C(=O)c2cccc(F)c2)cc1 [Compound 40] . Value?
Reply | 298

###

# Test system: 3T3-L1 adipocytes
# ASSAY_DETAILS: glucose consumption (remaining glucose) in culture medium of 3T3-L1 adipocytes
# Assay type: cell-based
# ASSAY_SETUP: 30 μg/ml; culture medium of 3T3-L1 adipocytes after 24 hours; means ± SD, N = 3; control 310 ± 4.0
METRIC_NAME: remaining glucose concentration in culture medium after 24 hours (mg/dL)
Note: unit mg/dL is implicit; provide only the numeric part.

| COMPOUND | VALUE_REPORTED |
| --- | --- |
| COc1cccc(/C=C/C(=O)c2cccc(Br)c2)c1 [Compound 14] | 262 |
| O=C(/C=C/c1ccccc1)c1cccc(Br)c1 [Compound 49] | 299 |
| COc1ccc(/C=C/C(=O)c2cc(Cl)ccc2O)cc1 [Compound 37] | 282 |
| COc1ccc(/C=C/C(=O)c2cccc(Cl)c2)cc1 [Compound 45] | 255 |
| COc1cccc(/C=C/C(=O)c2cc(Cl)ccc2O)c1 [Compound 38] | 266 |
| COc1ccc(/C=C/C(=O)c2ccccc2O)cc1 [Compound 1] | 283 |

Ask | What remaining glucose concentration in culture medium after 24 hours value was documented for this compound, O=C(/C=C/c1ccc(OCc2ccccc2)cc1)c1ccc(O)cc1O [Compound 3] ?
Reply | 249

Ask | Name the recorded remaining glucose concentration in culture medium after 24 hours for O=C(/C=C/c1ccccc1)c1ccc(I)cc1 [Compound 58] .
Reply | 292

Ask | Consider the compound CN(CCOc1ccc(CC2SC(=O)NC2=O)cc1)c1ccccn1 (centres unmarked) [Rosiglitazone, rosiglitazone, reference compound] and give its measured remaining glucose concentration in culture medium after 24 hours.
Reply | 263

Ask | Value lookup for remaining glucose concentration in culture medium after 24 hours; key = O=C(/C=C/c1ccccc1)c1ccc(Br)cc1 [Compound 50]
Reply | 295

Ask | Quick one: remaining glucose concentration in culture medium after 24 hours of COc1ccc(/C=C/C(=O)c2ccc(I)cc2)cc1 [Compound 59] ?
Reply | 299

Ask | Entry O=C(/C=C/c1ccc2c(c1)OCO2)c1ccccc1O [Compound 33] has what remaining glucose concentration in culture medium after 24 hours?
Reply | 279

Ask | What value of measured remaining glucose concentration in culture medium after 24 hours is listed for O=C(/C=C/c1cccc(OCc2ccccc2)c1)c1ccccc1O [Compound 11] ?
Reply | 256

Ask | If you can, please state the reported remaining glucose concentration in culture medium after 24 hours value of CCc1ccc(CCOc2ccc(CC3SC(=O)NC3=O)cc2)nc1 (centres unmarked) [Pioglitazone, pioglitazone, reference compound] .
Reply | 230

Ask | Can you share its remaining glucose concentration in culture medium after 24 hours? I mean this compound: O=C(/C=C/c1ccccc1)c1cccc(Cl)c1 [Compound 43]
Reply | 291

Ask | Query: remaining glucose concentration in culture medium after 24 hours; subject: COc1cccc(/C=C/C(=O)c2ccc(I)cc2)c1 [Compound 60]
Reply | 274

Ask | Given the entry COc1ccc(/C=C/C(=O)c2ccc(Br)cc2)cc1 [Compound 18] , report its measured remaining glucose concentration in culture medium after 24 hours.
Reply | 261

Ask | Using the record for COc1cccc(/C=C/C(=O)c2cc(Br)ccc2O)c1 [Compound 21] , report its remaining glucose concentration in culture medium after 24 hours.
Reply | 260
